# Test system: OVCAR-5
# Assay: NCI tumour cell line growth inhibition, 48 h
Activity calls are given as the source filed them. Cut-off read from the data, not from the text of the source: active = GI50 up to about 1.1 µM and inactive = higher.
GI50 values, listed per item

Below are worked cases with known answers.
>>> result("N/N=C1\\CCCc2c1no[n+]2[O-]")
"> 100 µM (inactive)"
>>> result("O=C(O)CCC1C(=O)C2CCN1CC2 (stereo not given)")
"> 100 µM (inactive)"
>>> result("O=C(Nc1ccc(C(F)(F)F)cc1[N+](=O)[O-])C(=O)C1NC(=S)NC1=O (stereo not given)")
"> 100 µM (inactive)"
>>> result("CC(=O)OCC1OC(c2nnc(C)o2)=CC(OC(C)=O)C1OC(C)=O (stereo not given)")
"> 100 µM (inactive)"
>>> result("O=C1CC2(CCC(O)(c3ccc4ccccc4c3)C(C(=O)c3ccc4ccccc4c3)C2)C(=O)c2ccccc2N1 (stereo not given)")
"> 100 µM (inactive)"

Q: Retrieve GI50 measured for O=C(CNc1c(Cl)cccc1Cl)NC1C=Cc2ccc(S(=O)(=O)Nc3c(Cl)cccc3Cl)cc2C1=O (stereo not given) and print it.
Result: 47.1 µM (inactive)

====

Parameter: GI50. Scope: all listed entries.
# Test system: UACC-62
# Assay: NCI tumour cell line growth inhibition, 48 h
Activity calls are given as the source filed them. Cut-off read from the data, not from the text of the source: active = GI50 up to about 1.1 µM and inactive = higher.

Q: Please indicate GI50 recorded for Cc1ccc(NC(=O)CCC(=O)C2CC(=O)CCC2=O)cc1C (stereo not given)
Result: > 100 µM (inactive)

====

# System: A549
# Assay: NCI tumour cell line growth inhibition, 48 h
The source made the active and inactive calls. No stated cut-off is given here; in the data, active = GI50 up to about 1.1 µM and inactive = higher.
Observed property: GI50

>>> result("CCCCCCCCCCCCCCCCCCNc1ccn(C2OC(CO)C(OP(=O)(O)OCC(O)COP(=O)(O)OCC3OC(n4cc(F)c(NCCCCCCCCCCCCCCCCCC)nc4=O)CC3O)C2O)c(=O)n1 (centres undefined)")
"> 50 µM (inactive)"
>>> result("C[N+]1(C)CN(c2ccccc2)C2(CCN(CCCC(=O)c3cccs3)CC2)C1=O")
"> 100 µM (inactive)"
>>> result("Nc1ccc(Oc2ccc(C34CC5CC(C3)CC(c3ccc(Oc6ccc(N)cc6)cc3)(C5)C4)cc2)cc1")
"11.1 µM (inactive)"
>>> result("Clc1cc(Cl)cc(/C=N/C23CC4CC(CC(C4)C2)C3)c1")
"> 10 µM (inactive)"
>>> result("CCCc1c(O)nc2ccccc2c1O")
"> 100 µM (inactive)"

Q: Return value of GI50 for input "COC/C=C\[C@]1(O)CCCC[C@@H]1CC(OC)OC" , no commentary.
Result: > 100 µM (inactive)

Q: Note GI50 for the compound shown: "CN(C)CCCn1c(-c2ccc(Br)cc2)cs/c1=N\c1ccccc1"
Result: 17.5 µM (inactive)

Q: Determine from records and report GI50 for c1ccc(COC[C@H]2C3OCC([C@H](OCc4ccccc4)[C@H]3OCc3ccccc3)N2Cc2ccccc2)cc1 (some centres undefined)
Result: > 54.2 µM (inactive)

Q: Give me measured GI50, please, for this compound: "C[C@@H]1C(=O)O[C@H]1[C@H](O)CO"
Result: > 100 µM (inactive)

====

# System: SR
# Assay: NCI tumour cell line growth inhibition, 48 h
The source made the active and inactive calls. No stated cut-off is given here; in the data, active = GI50 up to about 1.1 µM and inactive = higher.
Lab note: assign the record to one of active, inactive

Recorded results for 6 compounds are shown here.
>>> answer_label("Cc1nc(N)sc1C(=O)/C=C/c1ccc(/C=C/C(=O)c2sc(NC(=O)CCCCCCCCC(=O)Nc3nc(C)c(C(=O)/C=C/c4ccc(/C=C/C(=O)c5sc(N)nc5C)cc4)s3)nc2C)cc1")
"inactive"
>>> answer_label("CN(C)c1ccc(/C=C2\\N=C(c3ccccc3)N(c3nc4c(Cl)cc(Cl)cc4s3)C2=O)cc1")
"inactive"
>>> answer_label("CCCCCCCCCCCCCCCCOP(=O)([O-])OCC[N+](C)(C)C [MILTEFOSINE]")
"inactive"
>>> answer_label("CCOC(=O)C1(C(=O)OCC)CC(=O)[C@@]2(C1)OCC[C@H]1OC(=O)C[C@H]12")
"inactive"
>>> answer_label("CCOC(=O)C(=O)Nc1c(C(C)C)cccc1C(C)C")
"inactive"
>>> answer_label("CN/N=C(/CC(=O)c1sc(NNC(C)=O)nc1C)C(=O)Nc1ccc(OC)cc1OC")
"inactive"

Q: For O=C(CNc1c(Cl)cccc1Cl)NC1C=Cc2ccc(S(=O)(=O)Nc3c(Cl)cccc3Cl)cc2C1=O (stereo not drawn) , which call appears in the assay record?
Result: inactive

Q: // param item: C[N+](C)(C)CC(=O)N/N=C(\C(=O)NC1=C(Cl)C(=O)c2ccccc2C1=O)C(C#N)c1csc(-c2ccc([N+](=O)[O-])cc2)n1 (stereo not drawn) ; yields the recorded call
Result: inactive

Q: What is the recorded call for this compound in the test? "N#CC(CCN1CCC(Nc2ccccc2)(c2nnnn2C2CCCCC2)CC1)(c1ccccc1)c1ccccc1"
Result: inactive

Q: Called result for CCc1c(CNc2ccc(C(=O)NC(CC(=O)O)C(=O)O)cc2)ccc2nc(N)nc(N)c12 (stereo not drawn)
Result: active

Q: Any idea what this test logged for "COC/C=C\[C@]1(O)CCCC[C@@H]1CC(OC)OC" ?
Result: inactive

Q: Test call for this compound, please: "Cc1cc(NS(=O)(=O)c2ccc(NC(=O)c3ccc(Cl)c4c(Nc5ccc(S(=O)(=O)N=C(N)N)cc5)c5ccccc5nc34)cc2)no1"
Result: inactive

Q: Kindly provide the recorded test outcome for the following compound: O=C1CC2c3ccccc3CCC2c2ccccc21 (stereo not drawn)
Result: inactive

Q: Could you check what this test reported for Cc1c2n(c3ccccc13)CC1C2N(C)OC1(C)C (stereo not drawn) ?
Result: inactive
